Sourced from ChEMBL document CHEMBL5236610

Molecular target: Androgen receptor (Homo sapiens, UniProt P10275)
Sequence (P10275 whole entry): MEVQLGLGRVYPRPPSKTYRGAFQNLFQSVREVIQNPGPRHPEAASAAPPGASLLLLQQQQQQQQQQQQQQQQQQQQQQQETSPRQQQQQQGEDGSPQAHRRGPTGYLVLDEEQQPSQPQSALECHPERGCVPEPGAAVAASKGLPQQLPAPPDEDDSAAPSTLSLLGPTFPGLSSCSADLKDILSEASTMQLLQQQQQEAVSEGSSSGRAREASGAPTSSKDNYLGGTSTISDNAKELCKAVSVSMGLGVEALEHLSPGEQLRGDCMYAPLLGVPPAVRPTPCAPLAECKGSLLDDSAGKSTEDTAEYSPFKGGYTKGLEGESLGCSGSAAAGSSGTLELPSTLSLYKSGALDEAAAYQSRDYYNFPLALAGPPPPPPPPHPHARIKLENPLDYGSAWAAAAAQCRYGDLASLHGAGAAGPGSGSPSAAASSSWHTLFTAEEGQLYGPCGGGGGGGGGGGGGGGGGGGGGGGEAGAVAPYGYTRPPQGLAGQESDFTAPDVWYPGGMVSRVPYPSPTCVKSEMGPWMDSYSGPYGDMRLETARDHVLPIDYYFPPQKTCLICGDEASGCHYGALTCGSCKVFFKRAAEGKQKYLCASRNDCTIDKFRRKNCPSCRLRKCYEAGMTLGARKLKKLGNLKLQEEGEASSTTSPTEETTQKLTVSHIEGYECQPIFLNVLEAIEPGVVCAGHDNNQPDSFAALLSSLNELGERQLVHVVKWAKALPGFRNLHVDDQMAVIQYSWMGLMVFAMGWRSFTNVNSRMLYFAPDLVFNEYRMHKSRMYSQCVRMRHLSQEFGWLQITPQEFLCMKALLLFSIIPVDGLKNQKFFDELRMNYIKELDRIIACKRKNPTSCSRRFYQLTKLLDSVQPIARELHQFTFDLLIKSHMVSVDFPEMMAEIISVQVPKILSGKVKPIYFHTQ
Experiment: Inhibition of Androgen receptor (unknown origin)
measurement_label: IC50 (µM)

1. Clc1ccc(-c2cnc3n2CCC3)cc1; 4.3

###

Test system: CWR22R
Experiment: Antiproliferative activity against human 22Rv1 cells
Assay type: functional, cell-based
pIC50: −log10 of the molar value.
measurement_label: pIC50

1. COc1ccc2cc3[n+](cc2c1OC)CCc1cc2c(cc1-3)OCO2; 4.90

###

Test system: LNCaP
Assay: Antiproliferative activity against human LNCap cells incubated for 168 hrs by […] assay
Assay type: functional, cell-based
measurement_label: IC50 (µM)

1) CC1(C)C(=O)N(c2ccc(C#N)c(C(F)(F)F)c2)C(=S)N1CCCCOc1cccc2c1C(=O)N(C1CCC(=O)NC1=O)C2=O (stereo unspecified); 3.07

###

Target: von Hippel-Lindau disease tumor suppressor/Androgen receptor (Homo sapiens, UniProt P10275+P40337)
Sequence (P10275 whole entry): as above
Sequence (P40337 whole entry): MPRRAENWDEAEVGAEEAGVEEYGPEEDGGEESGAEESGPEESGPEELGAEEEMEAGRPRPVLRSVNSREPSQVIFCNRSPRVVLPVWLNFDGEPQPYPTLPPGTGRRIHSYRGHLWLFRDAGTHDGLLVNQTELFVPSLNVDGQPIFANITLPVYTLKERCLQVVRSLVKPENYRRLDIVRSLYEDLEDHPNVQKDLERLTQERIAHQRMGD
Assay: PROTAC activity at VHL/full length AR in human 22Rv1 cells assessed as induction of AR degradation incubated for 24 hrs by immunoblot assay
Assay type: cell-based
measurement_label: EC50

1) Cc1ncsc1-c1ccc([C@H](C)NC(=O)[C@@H]2C[C@@H](O)CN2C(=O)[C@@H](NC(=O)CCCCNC(=O)COc2c(-c3csc(N4CCOCC4)n3)ccc(F)c2F)C(C)(C)C)cc1; 2000 nM
